Molecular target: CDK4/CycD3 (Homo sapiens, UniProt P11802)
Sequence (P11802 whole entry, species assumed): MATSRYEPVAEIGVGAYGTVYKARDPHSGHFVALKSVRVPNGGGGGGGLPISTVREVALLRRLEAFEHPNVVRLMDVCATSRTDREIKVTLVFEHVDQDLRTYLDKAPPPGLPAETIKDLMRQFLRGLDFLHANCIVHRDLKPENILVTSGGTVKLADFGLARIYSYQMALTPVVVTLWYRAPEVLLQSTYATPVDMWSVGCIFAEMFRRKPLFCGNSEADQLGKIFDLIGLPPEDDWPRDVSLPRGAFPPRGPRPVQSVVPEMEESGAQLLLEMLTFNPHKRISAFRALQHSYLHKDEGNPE
Sequence (P30281 whole entry partner, species assumed): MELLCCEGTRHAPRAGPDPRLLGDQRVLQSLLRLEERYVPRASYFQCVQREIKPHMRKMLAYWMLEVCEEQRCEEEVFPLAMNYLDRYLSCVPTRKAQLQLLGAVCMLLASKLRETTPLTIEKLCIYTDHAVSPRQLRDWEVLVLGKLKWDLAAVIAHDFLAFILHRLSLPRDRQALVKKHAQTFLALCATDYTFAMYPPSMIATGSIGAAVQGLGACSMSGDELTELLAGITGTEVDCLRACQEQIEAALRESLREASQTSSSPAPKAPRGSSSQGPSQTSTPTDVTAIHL
Test: Enzyme activity test;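 also: values come from the source column headed CDK4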
measurement_kind: IC50

The compound identified as C[C@@]1(O)CCC[C@H]1n1c(=O)c(OC(F)F)cc2cnc(NC3CCN(S(=O)(=O)c4ccc(F)c(F)c4)CC3)nc21 registered its IC50 at < 10 nM

Short answer for C[C@@]1(O)CCC[C@H]1n1c(=O)c(OC(F)F)cc2cnc(NC3CCN(S(=O)(=O)c4cc(F)ccc4F)CC3)nc21 : IC50 was 10 to 100 nM

compound CCCc1ccc(S(=O)(=O)N2CCC(Nc3ncc4cc(OC(F)F)c(=O)n([C@@H]5CCC[C@@]5(C)O)c4n3)CC2)cc1 , IC50 observed: 10 to 100 nM

Form field IC50, entry CN(C)c1ccc(S(=O)(=O)N2CCC(Nc3ncc4cc(OC(F)F)c(=O)n([C@@H]5CCC[C@@]5(C)O)c4n3)CC2)cc1 : 10 to 100 nM

Noted for COc1cccc(S(=O)(=O)N2CCC(Nc3ncc4cc(OC(F)F)c(=O)n([C@@H]5CCC[C@@]5(C)O)c4n3)CC2)c1 : its IC50 reads < 10 nM

Per the record, C[C@@]1(O)CCC[C@H]1n1c(=O)c(OC(F)F)cc2cnc(NC3CCN(S(=O)(=O)N4CCOCC4)CC3)nc21 has IC50 of 10 to 100 nM
